System: A498 renal
assay_protocol: NCI tumour cell line growth inhibition, 48 h
endpoint: TGI

INSERT INTO results (smiles_str, tgt, result) VALUES
  ('COc1cnc2oc3ccc(O)cc3c2c1-c1ccccc1', 'A498 renal', '> 100 µM');

Please look at this molecule and report its TGI: Cc1c2cnccc2c(C)c2c1c1ccccc1n2CCCCCCCl
> 50 µM

For the molecule COc1c(O)ccc(/C=N/NC(=S)NCOCCOC(C)=O)c1OC , report TGI.
> 100 µM

* * *

Test system: SF-539 CNS
assay_protocol: NCI tumour cell line growth inhibition, 48 h
endpoint: log10 of TGI (log10 of the value in µM)
The base-10 logarithm of TGI, taken with TGI in µM, is what appears here.

Completed entries (count: 8):
INSERT INTO results (compound, tgt, measured_number) VALUES
  ('C=C1C(=O)OC2/C=C(CO)/C=C\C3OC3(C)CC(OC(=O)/C(C)=C/COC(C)=O)C12 (stereo not drawn)', 'SF-539 CNS', 0.64),
  ('O=C(N/N=C/c1cc(Cl)cc(Cl)c1[O-])c1ccccc1O.O=C(N/N=C/c1cc(Cl)cc(Cl)c1[O-])c1ccccc1O.[Mn+2]', 'SF-539 CNS', 0.65),
  ('O=C(Nc1cccc2[nH]c(C(F)(F)F)nc12)c1ccc(Br)cc1F', 'SF-539 CNS', 1.06),
  ('O=C(/C=C/c1cccc(Cl)c1)c1ccccc1', 'SF-539 CNS', 1.46),
  ('COC(=O)N1C=CC2=C(C)C3Nc4ccccc4C3C(C)=C2C1 (stereo not drawn)', 'SF-539 CNS', 1.24),
  ('COc1cc(Br)c(/C=N/N=C(\N)NO)cc1OC', 'SF-539 CNS', 1.77),
  ('COC(=O)C1=CCC[C@H]2[C@@]1(COC(C)=O)CC[C@@H](C)[C@]2(C)CC(=O)c1ccoc1', 'SF-539 CNS', 1.39),
  ('C=CCC(NCc1ccccc1)c1cn(C(=O)OCC)c2ccccc12 (stereo not drawn)', 'SF-539 CNS', 1.27);

For SF-539 CNS, give log10 of TGI of the listed compound: O=C(CC(=O)n1nc(-c2ccccc2)c(N=Nc2ccc([N+](=O)[O-])cc2)c1-c1ccccc1)Nc1ccc(Cl)cc1
1.88

Check SF-539 CNS data and give log10 of TGI for O=C1/C(=C/c2ccc([N+](=O)[O-])s2)Oc2ccc(Br)cc21 .
-0.29
